Target: squalene synthetase (Rattus norvegicus, UniProt Q02769)
Sequence (Q02769 1-416): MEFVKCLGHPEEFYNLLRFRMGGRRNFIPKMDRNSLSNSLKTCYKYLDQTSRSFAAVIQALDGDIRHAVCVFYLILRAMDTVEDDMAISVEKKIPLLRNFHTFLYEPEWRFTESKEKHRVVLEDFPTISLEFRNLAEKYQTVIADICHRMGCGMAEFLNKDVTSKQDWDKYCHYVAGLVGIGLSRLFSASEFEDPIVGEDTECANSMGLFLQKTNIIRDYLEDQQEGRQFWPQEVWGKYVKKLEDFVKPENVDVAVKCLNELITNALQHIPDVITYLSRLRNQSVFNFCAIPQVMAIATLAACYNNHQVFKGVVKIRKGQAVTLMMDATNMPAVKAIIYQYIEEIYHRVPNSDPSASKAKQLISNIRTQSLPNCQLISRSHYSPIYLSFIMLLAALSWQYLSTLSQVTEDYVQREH
readout: IC50 (µM)

- compound: "CC(C)(C)CN1C(=S)[C@@H](CC(=O)O)O[C@H](c2ccccc2Cl)c2cc(Cl)ccc21 (relative stereo) [Example 28]"
  target.of.assay: "squalene synthetase (Rattus norvegicus, UniProt Q02769)"
  IC50 / µM: 0.46
- compound: "CC(C)CN1C(=O)[C@@H](CC(=O)O)N[C@H](c2ccccc2Cl)c2cc(Cl)ccc21 [Example 14]"
  target.of.assay: "squalene synthetase (Rattus norvegicus, UniProt Q02769)"
  IC50 / µM: 0.43

A: CC(C)(C)CN1C(=O)[C@@H](CC(=O)O)S[C@H](c2ccccc2Cl)c2cc(Cl)ccc21 (relative stereo) [Example 9]
B: CCCN1C(=O)[C@@H](CC(=O)O)S[C@H](c2ccccc2OC)c2cc(Cl)ccc21 (relative stereo) [Example 10-6]
INPUT: Higher IC50: A or B ? I would appreciate it if you answered with the label of your choice.
OUTPUT: A

###

target: squalene synthetase (Homo sapiens, UniProt P37268); construct: endogenous in cells; assay: Squalene synthetase inhibitory activity, human-derived enzyme (HepG2 microsome fraction); conditions: 5 uM [1-3H] farnesyl pyrophosphate, 37° C., 45 minutes
Sequence (P37268 whole entry): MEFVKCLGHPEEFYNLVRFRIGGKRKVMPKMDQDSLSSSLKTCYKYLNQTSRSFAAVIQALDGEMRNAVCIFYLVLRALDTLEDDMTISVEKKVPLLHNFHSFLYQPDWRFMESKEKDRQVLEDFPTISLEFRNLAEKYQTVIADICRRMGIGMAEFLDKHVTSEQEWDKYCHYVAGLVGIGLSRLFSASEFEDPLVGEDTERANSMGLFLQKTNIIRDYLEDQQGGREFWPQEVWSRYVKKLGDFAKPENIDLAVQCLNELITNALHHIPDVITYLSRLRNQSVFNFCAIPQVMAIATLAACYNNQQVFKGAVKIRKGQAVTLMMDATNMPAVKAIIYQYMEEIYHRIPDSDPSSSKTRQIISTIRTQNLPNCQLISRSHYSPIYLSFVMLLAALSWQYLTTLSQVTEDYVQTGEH
readout: IC50 (nM)

a: COc1cccc([C@H]2S[C@H](CC(=O)O)C(=O)N(CC(C)(C)C)c3ccc(Cl)cc32)c1OC
b: CC(C)CN1C(=O)[C@@H](CC(=O)O)S[C@H](c2ccccc2Cl)c2cc(Cl)ccc21 (relative stereo)
c: COc1ccccc1[C@H]1S[C@H](CC(=O)O)C(=O)N(CC(C)C)c2ccc(Cl)cc21 (relative stereo)
INPUT: // ascending sort on IC50 for the entries above Submit the labels in the order that the ranking request calls for.
OUTPUT: a, c, b
(a: 5.9 nM, c: 13 nM, b: 25 nM)

###

Biological target: squalene synthetase (Rattus norvegicus, UniProt Q02769)
Sequence (Q02769 1-416): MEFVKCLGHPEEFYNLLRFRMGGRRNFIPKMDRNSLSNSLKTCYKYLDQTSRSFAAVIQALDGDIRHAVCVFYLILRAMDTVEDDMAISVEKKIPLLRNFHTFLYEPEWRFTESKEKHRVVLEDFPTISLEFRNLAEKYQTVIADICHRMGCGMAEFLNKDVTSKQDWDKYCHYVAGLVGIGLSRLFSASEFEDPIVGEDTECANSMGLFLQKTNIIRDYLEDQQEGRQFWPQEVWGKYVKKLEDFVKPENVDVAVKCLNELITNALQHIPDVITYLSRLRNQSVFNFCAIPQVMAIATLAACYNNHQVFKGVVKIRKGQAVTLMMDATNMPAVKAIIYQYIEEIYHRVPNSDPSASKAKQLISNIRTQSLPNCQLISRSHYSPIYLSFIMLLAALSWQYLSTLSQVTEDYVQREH
pIC50: −log10 of the molar value.
readout: pIC50

- molecule: "COc1ccc([C@H]2S[C@H](CC(=O)O)C(=O)N(CC(C)(C)C)c3ccc(Cl)cc32)c(OC)c1 [Example 51]"
  pIC50: 7.68
- molecule: "CC(C)CN1C(=O)[C@@H](CC(=O)O)N=C(c2ccccc2Cl)c2cc(Cl)ccc21 [Example 13]"
  pIC50: 5.41

P: CC(C)(C)CN1C(=O)[C@@H](CC(=O)O)S(=O)(=O)[C@H](c2ccccc2Cl)c2cc(Cl)ccc21 (relative stereo) [Example 21]
Q: CCCN1C(=O)[C@@H](CC(=O)O)S[C@H](c2ccccc2Cl)c2cc(Cl)ccc21 (relative stereo) [Example 10-2]
INPUT: Quick one: lower pIC50, P or Q ? I would appreciate it if you answered with the label of your choice.
OUTPUT: P
(P: 5.48, Q: 7.21)
